Molecular target: somatostatin receptor SSTR5 (UniProt P35346 1-364)
Sequence (P35346 whole entry): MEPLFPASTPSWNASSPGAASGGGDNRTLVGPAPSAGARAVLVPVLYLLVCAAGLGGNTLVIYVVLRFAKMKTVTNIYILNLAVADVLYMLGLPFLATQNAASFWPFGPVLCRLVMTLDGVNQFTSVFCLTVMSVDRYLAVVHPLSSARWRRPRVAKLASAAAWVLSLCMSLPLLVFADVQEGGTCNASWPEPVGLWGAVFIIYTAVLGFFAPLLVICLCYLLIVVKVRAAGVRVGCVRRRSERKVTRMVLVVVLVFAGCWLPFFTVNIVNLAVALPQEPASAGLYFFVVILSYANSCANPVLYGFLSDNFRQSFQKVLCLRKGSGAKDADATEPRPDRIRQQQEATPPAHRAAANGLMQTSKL
Assay: cell-based or functional assay
recorded-endpoint: IC50 (PathHunter β-Arrestin, antagonist mode)

- binder: "XXYXKTCX (HELM PEPTIDE1{[N[C@@H](Cc1ccc(Cl)cc1)C(=O)[*:2]].[dC].Y.[O=C(Nc1ccccc1)Nc1ccc(C[C@@H](N[*:1])C(=O)[*:2])cc1].K.T.C.[dY].[am]}$PEPTIDE1,PEPTIDE1,2:R3-7:R3$$$V2.0; SMILES C[C@@H](O)[C@@H]1NC(=O)[C@H](CCCCN)NC(=O)[C@@H](Cc2ccc(NC(=O)Nc3ccccc3)cc2)NC(=O)[C@H](Cc2ccc(O)cc2)NC(=O)[C@H](NC(=O)[C@@H](N)Cc2ccc(Cl)cc2)CSSC[C@@H](C(=O)N[C@H](Cc2ccc(O)cc2)C(N)=O)NC1=O) [Compound 15: H-Cpa-cyclo[D-Cys-Tyr-D-Phe(4-phenylureido)-Lys-Thr-Cys]-D-Tyr-NH2]"
  meas-value: "> 1000 nM"
- binder: "XXYXKTCX (HELM PEPTIDE1{[N[C@@H](Cc1ccc(Cl)cc1)C(=O)[*:2]].[dC].Y.[NC(=O)NCCC[C@@H](N[*:1])C(=O)[*:2]].K.T.C.[dY].[am]}$PEPTIDE1,PEPTIDE1,2:R3-7:R3$$$V2.0; SMILES C[C@@H](O)[C@@H]1NC(=O)[C@H](CCCCN)NC(=O)[C@@H](CCCNC(N)=O)NC(=O)[C@H](Cc2ccc(O)cc2)NC(=O)[C@H](NC(=O)[C@@H](N)Cc2ccc(Cl)cc2)CSSC[C@@H](C(=O)N[C@H](Cc2ccc(O)cc2)C(N)=O)NC1=O) [Compound 1: H-Cpa-cyclo[D-Cys-Tyr-D-Cit-Lys-Thr-Cys]-D-Tyr-NH2]"
  meas-value: "> 1000 nM"
- binder: "XXYXKTCX (HELM PEPTIDE1{[N[C@@H](Cc1ccc(Cl)cc1)C(=O)[*:2]].[dC].Y.[NC(=O)NCc1ccc(C[C@@H](N[*:1])C(=O)[*:2])cc1].K.T.C.[dY].[am]}$PEPTIDE1,PEPTIDE1,2:R3-7:R3$$$V2.0; SMILES C[C@@H](O)[C@@H]1NC(=O)[C@H](CCCCN)NC(=O)[C@@H](Cc2ccc(CNC(N)=O)cc2)NC(=O)[C@H](Cc2ccc(O)cc2)NC(=O)[C@H](NC(=O)[C@@H](N)Cc2ccc(Cl)cc2)CSSC[C@@H](C(=O)N[C@H](Cc2ccc(O)cc2)C(N)=O)NC1=O) [Compound 7: H-Cpa-cyclo[DCys-Tyr-D-(4-ureidomethyl)Phe-Lys-Thr-Cys]-DTyr-NH2]"
  meas-value: "> 1000 nM"
